# tgt: CDK2/Cyclin A (Homo sapiens (Human))
# experiment: CDK2/Cyclin A kinase assay (Nanosyn, Caliper microfluidic)
# conditions: 12-point dose-response, singlicate, at Km for ATP; ATP 50 μM; 3 hr
Listed compounds paired with reported IC50
Give the quantity in nM, number only.

Form entry - test system: CDK2/Cyclin A (Homo sapiens (Human)); read-out: IC50; compound: NS(=O)(=O)c1ccc(Nc2ncc3cc4n(c3n2)C2(CCCCC2)CC(=O)N4)cc1 [Compound 2]
0.4

Similarly, CC1C(=O)N(C)c2cc3cnc(Nc4ccc(S(N)(=O)=O)cc4)nc3n2C12CCCCC2 (stereo not drawn) [Compound 43] ?
4

Now take the following compound into account.
Fill in the recorded IC50 for this compound, with CDK2/Cyclin A (Homo sapiens (Human)) as test system: C[C@@H]1NC(=O)C2(CCCCC2)n2c1cc1cnc(Nc3ccc(S(N)(=O)=O)cc3)nc12 [Compound 19]
4.3
